Origin of the recorded values: PubChem BioAssay

assayMethodText: yeast growth modulation, basal conditions, primary screen, YJM789 clinical isolate, OD600, 24 h (AID 1089);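 also: growth of clinical yeast isolate S. cerevisiae YJM 789 seeded 1000 cells per well; test concentration not given here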
testParameters: S. cerevisiae YJM789 growth, higher = more signal, called active from +8 up or from −8 down
Response key: Yes means z-score >= 0.01; No means z-score < 0.01.

COCCOC(=O)N1C(=O)[C@@]2(c3ccccc31)[C@H](C(N)=O)[C@H]1C(=O)O[C@H](c3ccccc3)[C@H](c3ccccc3)N1[C@@H]2c1ccccc1OCCO	Yes
CN(C)C(=O)[C@@]1(Cc2ccccc2)N=C(c2ccc(OCCCO)cc2)O[C@H]1c1ccccc1CN=[N+]=[N-]	No

Proceed to the following item.
Identify whether the reported z-score of the following compound is 0.01 or greater: `O=C1[C@H]2[C@H]3[C@H](O)[C@H](O)CC(=NOCc4ccccc4)[C@@H]3CC[C@H]2C(=O)N1C1CCCCC1`
Yes

* * *

assayMethodText: small-molecule binders of probe aNOTCH3, primary screen, biochemical, small-molecule microarray, 635/667 nm fluorescence (AID 1120);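 also: probe is a biotin-tagged antibody raised against NOTCH3 rather than NOTCH3 protein; score merges spot fluorescence near 667 nm with spot signal to noise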
testParameters: higher = more signal
Class boundaries, taken from values of composite z-score, are as follows: bucket A = under -0.03, bucket B = from -0.03 up to 0.05, bucket C = 0.05 and over

CO[C@@H]1COC(=O)[C@@H]2CCCN2C(=O)[C@@H](C)COC(=O)[C@H](COCc2ccccc2)NC(=O)CC=C[C@H]1C	bucket A
COC(=O)[C@H]1COC(c2ccc(OCCCO)cc2)=N1	bucket A
Cc1cc(C)c(-c2cc([C@H](C)ON=C3[C@H]4CCn5c(=O)n(-c6ccccc6)c(=O)n5[C@H]4[C@H](O)[C@@H]4O[C@H]34)on2)c(C)c1	bucket C
N#Cc1ccc(NN2C(C(O)c3cccc4ccccc34)C=CC3C(=O)N(c4ccccc4)C(=O)C32)cc1 (configuration not stated)	bucket C

Which bin, given its composite z-score, does `COc1ccc(O[C@H]2C=C[C@@H](c3ccccc3)O[C@@H]2CON=C[C@@H](C)[C@H](OCc2ccccc2)C(C)C)cc1` occupy?
bucket A

Entry `O=C1[C@H]2[C@H]3[C@H](O)[C@H](O)CC(=NOCc4ccccc4)[C@H]3CC[C@H]2C(=O)N1c1ccc(F)cc1F` belongs to which category?
bucket A

Which class is correct for the following molecule? `COC(=O)CC=C[C@H](C)[C@@H](OCc1ccccc1Br)C(C)C`
bucket A

# bin label for `COc1ccc([Si](C)(C)[C@H]2[C@H](CCO)O[C@@]3(C(=O)N(Cc4cccc(NC(=O)[C@H](C)O)c4)c4ccccc43)[C@@H]2C)cc1`
bucket B

* * *

Item-by-item account of z-score
assayMethodText: A549 lung cancer cell viability effects, profiling panel, resazurin fluorescence, 24 h, PK04 Diversity Set (AID 1171); also: test concentration not given here
testParameters: higher = more signal, called active from +8 up or from −8 down
Please state the value as a number alone, without comment.

Recorded results for 3 molecules are shown here.
CO[C@@H]1COC(=O)[C@H](C)NC(=O)[C@@H](C)COC(=O)CCC[C@H]1C	-0.0213
CCN1C(=O)[C@H]2[C@H]3[C@H](O)[C@H](O)CC(=NOCc4ccccc4)[C@H]3CC[C@H]2C1=O	-0.0275
C=CC[C@]1(C(=O)NCc2ccccc2)N=C(c2ccc(OCCCO)cc2)O[C@H]1c1ccccc1	0.953

Entry `CCc1cccc(NC(=O)O[C@H]2[C@H](OC(=O)Nc3ccc4c(c3)OCO4)[C@@H](OC(=O)Nc3ccc4c(c3)OCO4)[C@@H](OC)O[C@@H]2CO)c1` needs its z-score filled in; supply it.
0.735

For the molecule CC(C)(C)N1CC=CC23O[C@@H]4C=CCCOC(=O)C4[C@H]2C(=O)N(CCCCCO)[C@@H]3C1=O (stereo not given in full) , report z-score.
0.0951

Return z-score for the following molecule: `O=C1C[C@@H](O)[C@@H](O)[C@@H]2[C@@H]3C(=O)N(c4cccc(Oc5ccccc5)c4)C(=O)[C@@H]3CC[C@@H]12`
-0.187

Check the records and state z-score for `CC(=O)C[C@H](O)[C@@H](NC(=O)OC(C)(C)C)C(C)C`
-0.289

Report z-score, nothing else, for this molecule: `CO[C@@H]1COC(=O)CC=C[C@@H](C)[C@@H]2C=C[C@@H](O)[C@@H](COC(=O)CC=C[C@H]1C)O2`
-0.299

Quick one: give measured z-score for `CO[C@H]1COC(=O)[C@H](C)NC(=O)[C@@H](C)COC(=O)CC=C[C@@H]1C`
-0.162

Tell me its z-score given `COCCOC(=O)N1C(=O)[C@@]2(c3cc(C#Cc4ccc(OC)cc4)ccc31)[C@H](c1ccc(O)cc1)N1[C@H](c3ccccc3)[C@H](c3ccccc3)OC(=O)[C@H]1[C@@H]2C(N)=O` as the entry.
-1.51

Specify reported z-score for the molecule shown: Cn1cccc1C(O)C1C=CC2C(=O)NC(=O)C2N1Nc1ccccn1 (stereo not given)
-1.14

Indicate the recorded z-score value for this molecule: CCOC(=O)[C@H](Cc1ccccc1)NC(=O)CCC1CC(OC(=O)NCc2ccc3c(c2)OCO3)CC2(CCCC(COC(=O)NCC(c3ccccc3)c3ccccc3)O2)O1 (stereo not given in full)
0.174
